Target: mMC3R (Mus musculus, UniProt P33033)
Sequence (P33033 whole entry): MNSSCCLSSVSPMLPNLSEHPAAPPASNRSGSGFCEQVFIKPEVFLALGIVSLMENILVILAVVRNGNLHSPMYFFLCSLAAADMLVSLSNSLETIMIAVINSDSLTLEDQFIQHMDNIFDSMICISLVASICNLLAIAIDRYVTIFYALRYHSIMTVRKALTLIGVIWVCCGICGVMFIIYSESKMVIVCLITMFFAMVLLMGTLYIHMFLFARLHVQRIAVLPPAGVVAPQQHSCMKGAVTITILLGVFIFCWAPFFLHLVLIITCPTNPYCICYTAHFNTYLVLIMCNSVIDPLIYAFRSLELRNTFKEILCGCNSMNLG
Conditions: Table 1; Schild analysis, pA2 = -Log(Ki); Full Agonist = full dose-response, No Activity = no shift in EC50
Square brackets hold non-standard residues; d marks the D form. Peptide text beside a SMILES is read from it. Bip = N[C@@H](Cc1ccc(-c2ccccc2)cc1)C(=O)O; dPhe(4-I) = N[C@H](Cc1ccc(I)cc1)C(=O)O; 2Nal = N[C@@H](Cc1ccc2ccccc2c1)C(=O)O; d2Nal = N[C@H](Cc1ccc2ccccc2c1)C(=O)O; Bta = N[C@@H](Cc1csc2ccccc12)C(=O)O
MEASUREMENT NAME: mMC3R Antagonist pA2 ± SEM

[[record]]
molecule = "CC(=O)N[C@@H](Cc1ccc2ccccc2c1)C(=O)N[C@@H](CCCNC(=N)N)C(=O)N[C@H](Cc1ccc(I)cc1)C(=O)N[C@@H](Cc1csc2ccccc12)C(N)=O [SKY4-48-16, Ac-Nal(2′)-Arg-(pI)DPhe-3Bal-NH2] (Ac-[2Nal]R[dPhe(4-I)][Bta]-NH2)"
measurement_name = "mMC3R Antagonist pA2 ± SEM"
result = "Full Agonist"

[[record]]
molecule = "CC(=O)N[C@@H](Cc1ccc2ccccc2c1)C(=O)N[C@@H](CCCNC(=N)N)C(=O)N[C@H](Cc1ccc(I)cc1)C(=O)N[C@H](Cc1ccc2ccccc2c1)C(N)=O [SKY4-48-48, Ac-Nal(2′)-Arg-(pI)DPhe-DNal(2′)-NH2] (Ac-[2Nal]R[dPhe(4-I)][d2Nal]-NH2)"
measurement_name = "mMC3R Antagonist pA2 ± SEM"
result = "No Activity"

[[record]]
molecule = "CC(=O)N[C@@H](Cc1ccccc1)C(=O)N[C@@H](CCCNC(=N)N)C(=O)N[C@H](Cc1ccc(I)cc1)C(=O)N[C@H](Cc1ccc2ccccc2c1)C(N)=O [SKY4-48-47, Ac-Phe-Arg-(pI)DPhe-DNal(2′)-NH2] (Ac-FR[dPhe(4-I)][d2Nal]-NH2)"
measurement_name = "mMC3R Antagonist pA2 ± SEM"
result = "No Activity"

[[record]]
molecule = "CC(=O)N[C@@H](Cc1ccc(-c2ccccc2)cc1)C(=O)N[C@@H](CCCNC(=N)N)C(=O)N[C@H](Cc1ccc(I)cc1)C(=O)N[C@@H](Cc1ccc(-c2ccccc2)cc1)C(N)=O [SKY4-48-4, Ac-Bip-Arg-(pI)DPhe-Bip-NH2] (Ac-[Bip]R[dPhe(4-I)][Bip]-NH2)"
measurement_name = "mMC3R Antagonist pA2 ± SEM"
result = "No Activity"

[[record]]
molecule = "CC(=O)N[C@@H](Cc1csc2ccccc12)C(=O)N[C@@H](CCCNC(=N)N)C(=O)N[C@H](Cc1ccc(I)cc1)C(=O)N[C@@H](Cc1csc2ccccc12)C(N)=O [SKY4-48-13, Ac-3Bal-Arg-(pI)DPhe-3Bal-NH2] (Ac-[Bta]R[dPhe(4-I)][Bta]-NH2)"
measurement_name = "mMC3R Antagonist pA2 ± SEM"
result = "Full Agonist"


What reported mMC3R Antagonist pA2 ± SEM corresponds to CC(=O)N[C@@H](Cc1ccc2ccccc2c1)C(=O)N[C@@H](CCCNC(=N)N)C(=O)N[C@H](Cc1ccc(I)cc1)C(=O)N[C@@H](Cc1ccccc1)C(N)=O [SKY4-48-32, Ac-Nal(2′)-Arg-(pI)DPhe-Phe-NH2] (Ac-[2Nal]R[dPhe(4-I)]F-NH2) on mMC3R (Mus musculus, UniProt P33033)?
No Activity

Try CC(=O)N[C@@H](Cc1ccc(-c2ccccc2)cc1)C(=O)N[C@@H](CCCNC(=N)N)C(=O)N[C@H](Cc1ccc(I)cc1)C(=O)N[C@@H](Cc1ccc2ccccc2c1)C(N)=O [SKY4-48-36, Ac-Bip-Arg-(pI)DPhe-Nal(2′)-NH2] (Ac-[Bip]R[dPhe(4-I)][2Nal]-NH2) next.
No Activity
